- System: EPHA1
- CONDITION_INFO: concentration: 1 μM, replicates: in singlicate; n = 1;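 further: KINOMEscan kinase panel screen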
Define the label as 1.0 when %Inh is strictly less than 10% and as 0.0 in all remaining cases.

[
  {
    "CHEM_SMILES": "Cn1cc(-c2cnc(N)c3c(-c4ccc5c(c4)CCN5C(=O)Cc4ccccc4)csc23)cn1",
    "MEASURED_TARGET": "EPHA1",
    "GROUP_LABEL": 0.0
  },
  {
    "CHEM_SMILES": "Cc1ccccc1CC(=O)N1CCc2cc(-c3cn(C)c4ncnc(N)c34)ccc21",
    "MEASURED_TARGET": "EPHA1",
    "GROUP_LABEL": 0.0
  },
  {
    "CHEM_SMILES": "Cl.O=C(Nc1ccc(Oc2ccc3[nH]c(NC(=O)c4ccco4)nc3c2)cc1)Nc1cc(C(F)(F)F)ccc1F",
    "MEASURED_TARGET": "EPHA1",
    "GROUP_LABEL": 0.0
  },
  {
    "CHEM_SMILES": "N#Cc1cnc2cc(-c3cnc(CNCCN4CCOCC4)s3)ccc2c1Nc1ccc(Oc2ccccc2)cc1",
    "MEASURED_TARGET": "EPHA1",
    "GROUP_LABEL": 1.0
  },
  {
    "CHEM_SMILES": "CCNc1nccc(-c2c(-c3ccc(F)cc3)ncn2C2CCN(C)CC2)n1",
    "MEASURED_TARGET": "EPHA1",
    "GROUP_LABEL": 1.0
  },
  {
    "CHEM_SMILES": "c1ccc(Oc2ccc(Nc3ccnc4cc(-c5ccc(CN6CCCCC6)o5)ccc34)cc2)nc1",
    "MEASURED_TARGET": "EPHA1",
    "GROUP_LABEL": 0.0
  }
]

----------
- Test system: PAK1
- CONDITION_INFO: concentration: 1 μM, replicates: in singlicate; n = 1

[
  {
    "COMPOUND": "N#CC1(c2cccc(C(=O)Nc3cccc(Oc4ccc5nc(NC(=O)C6CC6)sc5n4)c3)c2)CC1",
    "MEASURED_TARGET": "PAK1",
    "%Inh": "3%"
  },
  {
    "COMPOUND": "CN(C)CCOc1ccc(-c2cc(-c3ccc(Cl)c(O)c3)c(-c3ccncc3)[nH]2)cc1.Cl.Cl",
    "MEASURED_TARGET": "PAK1",
    "%Inh": "8%"
  },
  {
    "COMPOUND": "Cc1ccc(-c2ccc3occ(-c4ccc(S(C)=O)cc4)c3c2)nn1 (centres unmarked)",
    "MEASURED_TARGET": "PAK1",
    "%Inh": "6%"
  },
  {
    "COMPOUND": "Cc1ccc(NC(=O)c2ccc(Cl)c(Cl)c2)cc1-c1ccc(C(=O)Nc2ccncc2)cc1",
    "MEASURED_TARGET": "PAK1",
    "%Inh": "19%"
  },
  {
    "COMPOUND": "COC(=O)Nc1nc2cc(Oc3ccc(NC(=O)Nc4cccc(SC)c4)cc3)ccc2[nH]1.Cl",
    "MEASURED_TARGET": "PAK1",
    "%Inh": "0%"
  },
  {
    "COMPOUND": "CC(C)c1nc(-c2cccc(NS(=O)(=O)c3c(F)cccc3F)c2)c(-c2ccnc(Nc3ccc(N4CCOCC4)nc3)n2)s1.Cl",
    "MEASURED_TARGET": "PAK1",
    "%Inh": "19%"
  },
  {
    "COMPOUND": "CN(C)c1ncnc2nc[nH]c12",
    "MEASURED_TARGET": "PAK1",
    "%Inh": "8%"
  },
  {
    "COMPOUND": "CC(C)NCC(Cc1ccccc1)NC(=O)c1cc(Br)c(-c2ccnc3[nH]ccc23)s1.Cl.Cl (centres unmarked)",
    "MEASURED_TARGET": "PAK1",
    "%Inh": "11%"
  }
]
